// provenance: ChEMBL document CHEMBL1147637

# system: Stromelysin-1 (Homo sapiens)
# Sequence (P08254 whole entry): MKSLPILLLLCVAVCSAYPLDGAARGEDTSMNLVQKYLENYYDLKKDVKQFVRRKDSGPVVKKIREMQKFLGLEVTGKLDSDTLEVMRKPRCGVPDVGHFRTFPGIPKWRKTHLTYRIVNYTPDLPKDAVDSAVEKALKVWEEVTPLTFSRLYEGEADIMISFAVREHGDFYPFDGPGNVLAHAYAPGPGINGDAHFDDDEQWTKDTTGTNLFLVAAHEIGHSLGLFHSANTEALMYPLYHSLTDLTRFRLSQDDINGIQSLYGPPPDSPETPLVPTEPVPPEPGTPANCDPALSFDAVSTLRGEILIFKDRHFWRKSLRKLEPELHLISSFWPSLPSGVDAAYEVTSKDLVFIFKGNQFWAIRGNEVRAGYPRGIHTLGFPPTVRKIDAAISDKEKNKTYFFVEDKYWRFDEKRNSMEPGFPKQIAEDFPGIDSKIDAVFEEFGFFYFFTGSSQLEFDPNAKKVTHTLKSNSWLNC
# measurement protocol: Inhibition of recombinant human matrix metalloprotease-3
Mark each entry T if its Ki sits below 30 nM, and F for all others.

Consider the worked cases shown below.
Exam item: Bench note: check whether "CC#CCOc1ccc(S(=O)(=O)N2C[C@@H](O)[C@H]3OC(C)(C)O[C@@H]3[C@@H]2C(=O)NO)cc1" shows Ki below 30 nM
Marked response: F

Exam item: Bench note: check whether "CC#CCOc1ccc(S(=O)(=O)N2C[C@H]3OC(C)(C)O[C@H]3[C@H](OC)[C@@H]2C(=O)NO)cc1" shows Ki below 30 nM
Marked response: T

Exam item: Bench note: check whether "CC#CCOc1ccc(S(=O)(=O)N2C[C@@H](O)[C@@H](O)[C@H](O)[C@@H]2C(=O)NO)cc1" shows Ki below 30 nM
Marked response: T

Please examine the following record next.
Exam item: Bench note: check whether "CC#CCOc1ccc(S(=O)(=O)N2C[C@@H](O)[C@@H](O)[C@H](OC)[C@@H]2C(=O)NO)cc1" shows Ki below 30 nM
Marked response: T

====

# system: Matrix metalloproteinase-9 (Homo sapiens)
# Sequence (P14780 whole entry): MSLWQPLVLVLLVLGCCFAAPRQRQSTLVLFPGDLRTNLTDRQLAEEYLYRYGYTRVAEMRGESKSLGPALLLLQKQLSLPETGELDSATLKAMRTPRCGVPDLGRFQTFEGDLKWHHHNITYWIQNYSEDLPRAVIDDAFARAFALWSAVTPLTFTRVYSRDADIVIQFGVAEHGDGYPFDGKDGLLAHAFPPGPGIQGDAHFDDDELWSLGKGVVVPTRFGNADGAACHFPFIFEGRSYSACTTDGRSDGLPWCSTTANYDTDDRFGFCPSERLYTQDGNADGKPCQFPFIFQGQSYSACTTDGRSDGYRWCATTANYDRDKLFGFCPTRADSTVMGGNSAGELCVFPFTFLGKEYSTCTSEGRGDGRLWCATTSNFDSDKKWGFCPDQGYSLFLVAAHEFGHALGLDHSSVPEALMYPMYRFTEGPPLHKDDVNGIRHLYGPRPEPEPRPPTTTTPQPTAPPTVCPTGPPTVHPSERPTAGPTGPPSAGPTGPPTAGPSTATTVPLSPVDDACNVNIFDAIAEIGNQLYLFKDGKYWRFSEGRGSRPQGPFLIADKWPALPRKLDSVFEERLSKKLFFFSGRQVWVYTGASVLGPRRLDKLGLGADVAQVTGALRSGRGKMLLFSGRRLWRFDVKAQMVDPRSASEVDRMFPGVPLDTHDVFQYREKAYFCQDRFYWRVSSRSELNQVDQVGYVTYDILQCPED
# measurement protocol: Inhibition of recombinant human matrix metalloprotease-9
The reader will find reported pKi values listed item by item below.
Just so you know, pKi here is -log10 of the concentration in molar units; reply with that number alone.

Example entries and their recorded answers appear below.
Exam item: Query: pKi; subject: "CC#CCOc1ccc(S(=O)(=O)N2C[C@H]3OC(C)(C)O[C@H]3[C@H](OC)[C@@H]2C(=O)NO)cc1"
Marked response: 7.01

Exam item: Query: pKi; subject: "CC#CCOc1ccc(S(=O)(=O)N2C[C@H]3OC(C)(C)O[C@H]3[C@H](O)[C@@H]2C(=O)NO)cc1"
Marked response: 7.11

Exam item: Query: pKi; subject: "CC#CCOc1ccc(S(=O)(=O)N2C[C@@H](O)[C@@H](O)[C@H](O)[C@@H]2C(=O)NO)cc1"
Marked response: 7.85

Exam item: Query: pKi; subject: "CC#CCOc1ccc(S(=O)(=O)N2C[C@@H](O)[C@@H](O)[C@H](OC)[C@@H]2C(=O)NO)cc1"
Marked response: 7.92

Moving on to the next compound.
Exam item: Query: pKi; subject: "CC#CCOc1ccc(S(=O)(=O)N2C[C@@H](O)[C@H]3OC(C)(C)O[C@@H]3[C@@H]2C(=O)NO)cc1"
Marked response: 6.93

====

# system: Disintegrin and metalloproteinase domain-containing protein 17 (Homo sapiens, UniProt P78536)
# Sequence (P78536 whole entry, the tested form may be a part): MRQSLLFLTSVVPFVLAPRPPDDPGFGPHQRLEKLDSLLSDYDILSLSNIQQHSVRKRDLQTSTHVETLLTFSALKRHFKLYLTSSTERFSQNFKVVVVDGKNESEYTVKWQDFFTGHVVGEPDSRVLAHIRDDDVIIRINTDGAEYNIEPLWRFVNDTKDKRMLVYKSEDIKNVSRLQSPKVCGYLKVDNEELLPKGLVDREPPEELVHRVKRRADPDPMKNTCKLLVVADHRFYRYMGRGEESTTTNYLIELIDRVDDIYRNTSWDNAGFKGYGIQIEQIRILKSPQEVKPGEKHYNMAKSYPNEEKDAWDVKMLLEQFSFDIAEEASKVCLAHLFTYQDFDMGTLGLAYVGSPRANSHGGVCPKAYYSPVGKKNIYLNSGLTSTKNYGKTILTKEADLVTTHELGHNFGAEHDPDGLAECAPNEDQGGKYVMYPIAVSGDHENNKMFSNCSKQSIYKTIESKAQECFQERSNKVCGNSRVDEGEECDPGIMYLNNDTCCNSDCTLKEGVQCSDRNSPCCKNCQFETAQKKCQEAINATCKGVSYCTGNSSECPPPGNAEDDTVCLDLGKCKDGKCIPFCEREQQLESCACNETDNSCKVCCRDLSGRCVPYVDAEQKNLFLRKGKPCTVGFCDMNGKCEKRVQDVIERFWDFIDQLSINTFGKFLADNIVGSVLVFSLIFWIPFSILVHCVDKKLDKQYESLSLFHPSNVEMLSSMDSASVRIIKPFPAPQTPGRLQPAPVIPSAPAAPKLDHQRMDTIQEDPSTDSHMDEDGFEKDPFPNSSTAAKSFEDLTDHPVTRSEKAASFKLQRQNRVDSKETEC
# measurement protocol: Inhibition of recombinant human TNF-alpha converting enzyme
observation type: Ki

Example entries and their recorded answers appear below.
Exam item: Query: Ki; subject: "CC#CCOc1ccc(S(=O)(=O)N2C[C@H]3OC(C)(C)O[C@H]3[C@H](O)[C@@H]2C(=O)NO)cc1"
Marked response: 0.57 nM

Exam item: Query: Ki; subject: "CC#CCOc1ccc(S(=O)(=O)N2C[C@@H](O)[C@@H](O)[C@H](OC)[C@@H]2C(=O)NO)cc1"
Marked response: 1.85 nM

Exam item: Query: Ki; subject: "CC#CCOc1ccc(S(=O)(=O)N2C[C@@H](O)[C@H]3OC(C)(C)O[C@@H]3[C@@H]2C(=O)NO)cc1"
Marked response: 1.85 nM

Moving on to the next compound.
Exam item: Query: Ki; subject: "CC#CCOc1ccc(S(=O)(=O)N2C[C@H]3OC(C)(C)O[C@H]3[C@H](OC)[C@@H]2C(=O)NO)cc1"
Marked response: 0.84 nM
